# System: OVCAR-5
# TEST DETAILS: NCI tumour cell line growth inhibition, 48 h
The source made the active and inactive calls. No stated cut-off is given here; in the data, active = GI50 up to about 1.1 µM and inactive = higher.
EXPERIMENTAL ENDPOINT: GI50

Here are 4 molecules together with their reported answers.
[[record]]
molecule = "O=C(O)C1=C(C(=O)O)N(c2ccncc2)C(c2ccco2)=CC1c1ccccc1[N+](=O)[O-] (stereo unspecified)"
test_value = "15 µM (inactive)"

[[record]]
molecule = "Cc1ccc(S(=O)(=O)N/N=C2/CC3CCC4CC2CC34)cc1 (stereo unspecified)"
test_value = "> 100 µM (inactive)"

[[record]]
molecule = "CCCCCc1cccc(=O)o1"
test_value = "> 100 µM (inactive)"

[[record]]
molecule = "Nc1nnc(N)n1NC(=O)C(=O)Nc1ccc([N+](=O)[O-])cc1"
test_value = "> 100 µM (inactive)"


Query: GI50; subject: N=c1oc2cc(O)ccc2cc1C(=O)NCc1ccccc1
53.7 µM (inactive)

Query: GI50; subject: COc1ccc(C[C@H]2COC(=O)[C@@H]2Cc2cc(OC)c(OC)c(OC)c2)cc1OC
> 100 µM (inactive)

###

# Tested on: M14
# TEST DETAILS: NCI tumour cell line growth inhibition, 48 h
Active and inactive are the calls of the source. No stated cut-off is given here; in the data, active = GI50 up to about 1.1 µM and inactive = higher.
EXPERIMENTAL ENDPOINT: GI50

[[record]]
compound = "CNC(=O)C1CCCN1C(=O)C(Cc1c[nH]cn1)NC(=O)C1CCC(=O)N1 (stereo not drawn)"
assayed_target = "M14"
test_value = "> 100 µM (inactive)"

[[record]]
compound = "Clc1ccccc1-c1nnc2c(-c3ccccc3)nc3ccccc3n12"
assayed_target = "M14"
test_value = "> 100 µM (inactive)"

[[record]]
compound = "CCc1ccc2c(c1)/C(=C1/Nc3ccccc3C1=O)C(=O)N2"
assayed_target = "M14"
test_value = "26.7 µM (inactive)"

[[record]]
compound = "O=C1Cc2c([nH]c3ccccc23)-c2ccccc2N1"
assayed_target = "M14"
test_value = "42.5 µM (inactive)"

[[record]]
compound = "Cc1cccc(C(C)(C)C)c1NC(=O)C(=O)Cc1nc2ccccc2s1"
assayed_target = "M14"
test_value = "> 100 µM (inactive)"


Query: GI50; subject: BrC1=CC=C2NC=CC3=CC=NC1C32 (stereo not drawn)
18 µM (inactive)

Query: GI50; subject: CC(=O)NC(Cc1c[nH]c2ccccc12)C(=O)O (stereo not drawn)
> 100 µM (inactive)

Query: GI50; subject: O=C(O)CC1OCC=C2CN3CCC45C6=CC(=O)C(O)=C([N+](=O)[O-])C6=NC4C1C2CC35 (stereo not drawn)
> 100 µM (inactive)

Query: GI50; subject: O=C(c1ccccc1)N1CCc2c([nH]c3ccccc23)C1
34 µM (inactive)

Query: GI50; subject: O=C(CCc1ccc(O)c(O)c1)NCCc1cc(O)c(O)c(O)c1
22.4 µM (inactive)

Query: GI50; subject: CC(C)N(C(C)C)S(=O)(=O)C[C@]12CC[C@H](CC13OCC(CS(=O)(=O)c1ccccc1)O3)C2(C)C (stereo partly drawn)
47 µM (inactive)

Query: GI50; subject: CSc1ccc(/C=C2\N=C(c3ccccc3)N(c3nc4cc(Cl)c(F)cc4s3)C2=O)cc1
58.3 µM (inactive)

Query: GI50; subject: Cc1ccc2c(c1)-c1c(C#N)c(N)nc(-c3ccc(Cl)cc3)c1CCS2(=O)=O
5.21 µM (inactive)

###

# System: IGROV-1
# TEST DETAILS: NCI tumour cell line growth inhibition, 48 h
Calls of active or inactive are those of the source. Rule as the data show it: active = GI50 up to about 1.1 µM and inactive = higher.
Give one outcome, nothing more. List: YES (active), NO (inactive)

[[record]]
molecule = "COc1cc(/C=C2\\NC(=O)C(Cc3cc(OC)c(OC)c(C)c3OC)N(C(C)=O)C2=O)c(OC)c(C)c1OC (stereo not drawn)"
assigned_class = "NO"

[[record]]
molecule = "CCOP(=O)(OCC)/C(C#N)=C/c1c[nH]c2ccccc12"
assigned_class = "NO"

[[record]]
molecule = "CC(=O)OC(C(=O)O)C(OC(C)=O)C(OC(C)=O)C(OC(C)=O)C(=O)O (stereo not drawn)"
assigned_class = "NO"

[[record]]
molecule = "COC(=O)C1=C(C)NC2(O)C=CC(=O)C3C(=O)N(c4ccccc4)C(=O)C132 (stereo not drawn)"
assigned_class = "NO"

[[record]]
molecule = "O=C(NCc1ccc(Cl)cc1)c1cc2sccc2nc1C(F)(F)F"
assigned_class = "NO"

[[record]]
molecule = "COC(=O)C1(c2ccc(N(C)C)cc2OC)CCCN(C(=O)Oc2ccccc2[N+](=O)[O-])CCc2c1[nH]c1ccccc21 (stereo not drawn)"
assigned_class = "NO"


Outcome logged for O=C(O)c1ccc(Nc2ccnc3cc(Cl)ccc23)cc1O in this assay:
NO

Outcome logged for O=C(CSc1nc(-c2ccccc2)c(-c2ccccc2)[nH]1)N/N=C/c1ccc(O)cc1 in this assay:
NO

###

# System: K562
# TEST DETAILS: NCI tumour cell line growth inhibition, 48 h
Active and inactive are the calls of the source. No stated cut-off is given here; in the data, active = GI50 up to about 1.1 µM and inactive = higher.
Consider the following compounds and their measured GI50 readings.

Here are 10 compounds together with their reported answers.
[[record]]
compound = "O=C(O)c1cc2ccccc2c(/N=N/c2ccc(S(=O)(=O)Nc3nccs3)cc2)c1O"
assayed_target = "K562"
test_value = "> 100 µM (inactive)"

[[record]]
compound = "Cc1ccccc1NC(=O)C(=O)C(C#N)c1ccc(Cl)cc1 (configuration not stated)"
assayed_target = "K562"
test_value = "29.1 µM (inactive)"

[[record]]
compound = "O=c1[nH]c(=O)n(COCc2ccccc2)c2ccc(Br)cc12"
assayed_target = "K562"
test_value = "> 100 µM (inactive)"

[[record]]
compound = "CNc1cc2oc(=O)cc(C)c2cc1C"
assayed_target = "K562"
test_value = "> 100 µM (inactive)"

[[record]]
compound = "COC12OCCN(C)C1=CC(=O)C1(C)N=NCC12 (configuration not stated)"
assayed_target = "K562"
test_value = "> 100 µM (inactive)"

[[record]]
compound = "CCCCCC#CCOC(=O)C(=[N+]=[N-])P(=O)(c1ccccc1)c1ccccc1"
assayed_target = "K562"
test_value = "> 10 µM (inactive)"

[[record]]
compound = "C[n+]1c(-c2ccc(NC(=O)c3ccc(C(=O)Nc4ccc(-c5cn6ccccc6[n+]5C)cc4)cc3)cc2)cn2ccccc21"
assayed_target = "K562"
test_value = "> 100 µM (inactive)"

[[record]]
compound = "O=C(/C=C/c1ccc(Cl)cc1)c1nc2ccccc2[nH]1"
assayed_target = "K562"
test_value = "5.58 µM (inactive)"

[[record]]
compound = "N#CC(=N)c1ncn(CCO)c1NC(=O)C(F)(F)F"
assayed_target = "K562"
test_value = "> 100 µM (inactive)"

[[record]]
compound = "N#Cc1cn(-c2c3ccccc3nc3ccccc23)c(=O)[nH]c1=O"
assayed_target = "K562"
test_value = "3.67 µM (inactive)"


Query: GI50; subject: CC1=CCCC(C)(O)C2CC(CCC3(C)OC3CC1)C(C)C(=O)O2 (configuration not stated)
> 100 µM (inactive)

Query: GI50; subject: COC(=O)/C=C(/C=C1/C(C#N)=C(N)N(c2ccc(Cl)cc2)C1(C)/C(=C/C(=O)OC)C(=O)OC)C(=O)OC (configuration not stated)
20.6 µM (inactive)

###

Consider the following molecules and their measured GI50 readings.
# Test system: MDA-N
# TEST DETAILS: NCI tumour cell line growth inhibition, 48 h
Activity calls are given as the source filed them. No stated cut-off is given here; in the data, active = GI50 up to about 1.1 µM and inactive = higher.

Here are 5 molecules together with their reported answers.
[[record]]
molecule = "O=C(Nc1nncs1)NS(=O)(=O)n1c(=S)sc2ccccc21"
test_value = "> 100 µM (inactive)"

[[record]]
molecule = "CC1=NN(C(=O)c2ccncc2)C(=O)C1"
test_value = "> 100 µM (inactive)"

[[record]]
molecule = "Cc1nc(C)c(C(=O)NNC(N)=S)cc1C(=O)NNC(N)=S"
test_value = "> 100 µM (inactive)"

[[record]]
molecule = "CC(=O)OC1[C@H](OC(C)=O)C2=C(C)[C@@H](OC(C)=O)C[C@@]2(C(C)(C)O)[C@@H](OC(C)=O)[C@H]2[C@@]1(C)[C@@H](OC(C)=O)CC(OC(C)=O)[C@]21CO1 (stereo partly specified)"
test_value = "> 100 µM (inactive)"

[[record]]
molecule = "O=C1C(c2c(O)[nH]c3ccc(S(=O)(=O)O)cc23)=Nc2ccccc21"
test_value = "> 100 µM (inactive)"


Turning now to a further molecule:
API: value(readout= GI50, system= MDA-N, query= CC(C#N)Nc1ccc(Oc2ccc(C(C)(C)c3ccc(Oc4ccc(NC(C)C#N)cc4)cc3)cc2)cc1 (stereo unspecified) )
> 100 µM (inactive)

###

# Test system: SW-620
# TEST DETAILS: NCI tumour cell line growth inhibition, 48 h
Active and inactive are the calls of the source. No stated cut-off is given here; in the data, active = GI50 up to about 1.1 µM and inactive = higher.
Give one outcome, nothing more. List: YES for active, NO for inactive

Field: example entries. Status: answers known.
[[record]]
compound = "C#CCN(N=O)C(=O)NCCCCC(NC(=O)OCc1ccccc1)C(=O)OCc1ccccc1 (configuration not stated)"
assigned_class = "NO"

[[record]]
compound = "COc1ccccc1Nc1nc(N)nc(N)c1N=O"
assigned_class = "NO"

[[record]]
compound = "O=C(NC(Cc1c[nH]c2ccccc12)C(=O)O)/C(=C/c1ccccc1)NC(=O)c1ccccc1 (configuration not stated)"
assigned_class = "NO"


Outcome logged for N#C[C@@]12CCCC(=O)[C@@H]1[C@H]1CCC[C@H]12 in this assay:
NO

Outcome logged for COc1ccc2[nH]c3c(C)c4ccnc(NCCCN(C)CCCNC(=O)NCCCN(C)CCCNc5nccc6c(C)c7[nH]c8ccc(OC)cc8c7c(C)c56)c4c(C)c3c2c1 in this assay:
YES

Outcome logged for CCCCCC#CCOC(=O)C(=[N+]=[N-])P(=O)(c1ccccc1)c1ccccc1 in this assay:
NO

Origin of values: ChEMBL document CHEMBL1201862
